- system tested: T1, LINGO-Fc (human, UniProt Q96FE5 40-538, limits assumed)
- T1 construct: not shown: Fc part
- T1 sequence: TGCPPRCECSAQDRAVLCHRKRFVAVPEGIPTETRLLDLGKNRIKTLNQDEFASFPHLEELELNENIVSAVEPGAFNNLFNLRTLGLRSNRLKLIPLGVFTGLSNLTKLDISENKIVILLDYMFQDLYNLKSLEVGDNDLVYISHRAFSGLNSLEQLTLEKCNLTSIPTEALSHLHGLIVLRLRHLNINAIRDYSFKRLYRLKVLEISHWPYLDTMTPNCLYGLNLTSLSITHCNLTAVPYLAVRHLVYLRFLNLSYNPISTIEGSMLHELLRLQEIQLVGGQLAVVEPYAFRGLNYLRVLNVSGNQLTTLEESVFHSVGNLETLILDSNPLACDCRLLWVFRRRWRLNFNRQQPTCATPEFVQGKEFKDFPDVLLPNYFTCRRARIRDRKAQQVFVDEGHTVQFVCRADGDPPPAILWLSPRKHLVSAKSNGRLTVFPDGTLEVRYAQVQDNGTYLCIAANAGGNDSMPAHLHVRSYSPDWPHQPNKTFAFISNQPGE
- test: direct ELISA on LINGO-Fc; OD450 at saturation relative to Li33;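 further: binding to plate-coated LINGO-Fc read by OD450, with the value at maximal saturation divided by the corresponding Li33 value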
For each entry below, report its Plateau Ratio value.
Report the figure in ratio without appending any unit label.

input: Supply recorded Plateau Ratio for Li33 variant W50I (SEQ ID NO:174) (antibody, V domains shown, unchanged chain from WT Li33) VH: EVQLLESGGGLVQPGGSLRLSCAASGFTFSIYPMFWVRQAPGKGLEWVSIIGPSGGITKYADSVKGRFTISRDNSKNTLYLQMNSLRAEDTATYYCAREGHNDWYFDLWGRGTLVTVSS VL: DIQMTQSPGTLSLSPGERATLSCRASQSVSSYLAWYQQKPGQAPRLLIYDASNRATGIPARFSGSGSGTEFTLTISSLQSEDFAVYYCQQYDKWPLTFGGGTKVEIKR here.
output: 12.4

input: Supply recorded Plateau Ratio for Li33 variant P53G (SEQ ID NO:180) (antibody, V domains shown, unchanged chain from WT Li33) VH: EVQLLESGGGLVQPGGSLRLSCAASGFTFSIYPMFWVRQAPGKGLEWVSWIGGSGGITKYADSVKGRFTISRDNSKNTLYLQMNSLRAEDTATYYCAREGHNDWYFDLWGRGTLVTVSS VL: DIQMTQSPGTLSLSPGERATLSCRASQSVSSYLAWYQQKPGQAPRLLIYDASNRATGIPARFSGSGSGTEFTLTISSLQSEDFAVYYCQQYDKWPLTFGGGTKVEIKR here.
output: 0.83

input: Supply recorded Plateau Ratio for Li33 variant I57V (SEQ ID NO:185) (antibody, V domains shown, unchanged chain from WT Li33) VH: EVQLLESGGGLVQPGGSLRLSCAASGFTFSIYPMFWVRQAPGKGLEWVSWIGPSGGVTKYADSVKGRFTISRDNSKNTLYLQMNSLRAEDTATYYCAREGHNDWYFDLWGRGTLVTVSS VL: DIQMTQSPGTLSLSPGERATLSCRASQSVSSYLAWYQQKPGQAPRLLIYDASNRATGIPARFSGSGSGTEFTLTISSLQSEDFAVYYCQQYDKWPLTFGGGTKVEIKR here.
output: 1.13
